Assay: Novel Modifiers of Survival Motor Neuron (SMN) Protein: Gene Identification via Genome-wide siRNA Screen;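 note: luminescence tracks full-length SMN protein made from the SMN2 reporter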
Details: HEK293T SMN2-luciferase reporter, siRNA knockdown, 72 h; actives lie on both sides
About 1,400 (4.5%) of roughly 31,000 sequences were called active. The full list was thinned out, with actives kept by preference.
Reported median seed-adjusted z-score by item:

biosequence: GGCUUAUGGGUGUUCGGAUTT against POLK
median seed-adjusted z-score: -0.102 (inactive)
--
biosequence: CAAGGUAUUAUGCAACGUATT against FLG
median seed-adjusted z-score: 0.221 (inactive)
--
biosequence: GUAUAUAAACAGACAAUGATT against DNAJC8
median seed-adjusted z-score: -1.62 (active)
--
biosequence: AGGCCGUGCUCUUCACCUATT against FAAH
median seed-adjusted z-score: 0.373 (inactive)
--
biosequence: AGACCGAACUGGUUUCGCUTT against CDKN2C
median seed-adjusted z-score: -0.0789 (inactive)

Problem: Need median seed-adjusted z-score, item GCAAGAAACUCCACCCUUUTT against RGS3
Result: 0.065 (inactive)

Problem: Need median seed-adjusted z-score, item CCAAAGAUGUUUCAUCUGATT against PCDHGA7
Result: 0.705 (inactive)
